Study System: VIM-1 (Pseudomonas aeruginosa)
Construct: His tag (3C-cleavable) (C, cleaved yes); made in house
Test Method Notes: FC5 fluorogenic metallo-β-lactamase inhibition assay, VIM-1
Type: biochemical
Assay Context: pH 7.5; preincubation 60 min; FC5 substrate; read-out: IC50, μM (mean ± SD) for VIM-1, pH 7.5
Readout Name: IC50 (µM)
One number for each entry, in µM.

Given O=C(O)C(S)c1ccccc1 (racemic) [(±)-Thiomandelic acid, thiomandelic acid] , respond with its IC50.
1.4

----------
Test system: P. stuartii PS71
Test Method Notes: Broth microtiter dilution MIC, PS71
Type: cell-based
Assay Context: Providencia stuartii, TEM-1 (A), SHV-5 (A), VEB-1 (A), VIM-1 (B), with cyclic boronate 2 (10 mg/liter) supplementation, read-out: MIC (mg/liter) for β-lactam
Readout Name: MIC (mg/L)
Numbers only, in mg/L.

Could you report MIC for every entry in the following list?
1. CO/N=C(\C(=O)N[C@@H]1C(=O)N2C(C(=O)[O-])=C(C[N+]3(C)CCCC3)CS[C@H]12)c1csc(N)n1 [FEP, cefepime]
2. CO/N=C(\C(=O)N[C@@H]1C(=O)N2C(C(=O)O)=C(CSc3nc(=O)c(=O)[nH]n3C)CS[C@H]12)c1csc(N)n1

1: 8; 2: 16

Given Cc1nnc(SCC2=C(C(=O)O)N3C(=O)[C@@H](NC(=O)Cn4cnnn4)[C@H]3SC2)s1 , respond with its MIC.
4

----------
System: A. baumannii AB14
Test Method Notes: Broth microtiter dilution MIC, AB14
Format: cell-based
Assay Context: Acinetobacter baumannii, OXA-23 (D), OXA-51 (D), without cyclic boronate 2 supplementation, read-out: MIC (mg/liter) for β-lactam
Would you mind telling me the reported MIC of each entry?

CO/N=C(\C(=O)N[C@@H]1C(=O)N2C(C(=O)O)=C(CSc3nc(=O)c(=O)[nH]n3C)CS[C@H]12)c1csc(N)n1    > 32 mg/L
CC(C)(O/N=C(\C(=O)N[C@@H]1C(=O)N2C(C(=O)[O-])=C(C[n+]3ccccc3)CS[C@H]12)c1csc(N)n1)C(=O)O    > 16 mg/L
CCN1CCN(C(=O)N[C@@H](C(=O)N[C@@H]2C(=O)N3[C@@H]2SC(C)(C)[C@@H]3C(=O)O)c2ccccc2)C(=O)C1=O    > 64 mg/L
CO/N=C(\C(=O)N[C@@H]1C(=O)N2C(C(=O)[O-])=C(C[N+]3(C)CCCC3)CS[C@H]12)c1csc(N)n1 [FEP, cefepime]    > 32 mg/L
CC1(C)S[C@@H]2[C@H](NC(=O)[C@H](N)c3ccccc3)C(=O)N2[C@H]1C(=O)O    > 16 mg/L

From here, focus on the item given below.
Given Cc1nnc(SCC2=C(C(=O)O)N3C(=O)[C@@H](NC(=O)Cn4cnnn4)[C@H]3SC2)s1 , respond with its MIC.
> 16 mg/L

----------
Study System: CTX-M-15 (Escherichia coli, UniProt Q9EXV5)
Construct: hexahistidine (pOPINF, 3C-cleavable) (N, cleaved yes); made in house; host or cells: E. coli BL21(DE3)
Sequence (Q9EXV5 entry or part of it): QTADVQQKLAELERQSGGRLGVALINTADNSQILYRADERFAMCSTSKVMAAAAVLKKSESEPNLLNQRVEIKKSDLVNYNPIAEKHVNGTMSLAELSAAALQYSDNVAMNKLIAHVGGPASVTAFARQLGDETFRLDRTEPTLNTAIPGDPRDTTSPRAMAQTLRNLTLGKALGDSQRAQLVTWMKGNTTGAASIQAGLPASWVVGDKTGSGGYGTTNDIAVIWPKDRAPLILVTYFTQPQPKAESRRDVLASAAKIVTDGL
Test Method Notes: FC5 fluorogenic β-lactamase inhibition assay, CTX-M-15
Format: biochemical
Assay Context: IC50, nM (mean ± SD) for CTX-M-15, preincubation 360 min; FC5 substrate
Readout Name: IC50
Write the figure, then the unit, nothing else.

Given CC1(C)[C@H](C(=O)O)N2C(=O)C[C@H]2S1(=O)=O [Sulbactam, sulbactam] , respond with its IC50.
16.6 nM
